log10 Ki: recorded values
measuredOn: 72 kDa type IV collagenase (Homo sapiens)
Sequence (P08253 whole entry): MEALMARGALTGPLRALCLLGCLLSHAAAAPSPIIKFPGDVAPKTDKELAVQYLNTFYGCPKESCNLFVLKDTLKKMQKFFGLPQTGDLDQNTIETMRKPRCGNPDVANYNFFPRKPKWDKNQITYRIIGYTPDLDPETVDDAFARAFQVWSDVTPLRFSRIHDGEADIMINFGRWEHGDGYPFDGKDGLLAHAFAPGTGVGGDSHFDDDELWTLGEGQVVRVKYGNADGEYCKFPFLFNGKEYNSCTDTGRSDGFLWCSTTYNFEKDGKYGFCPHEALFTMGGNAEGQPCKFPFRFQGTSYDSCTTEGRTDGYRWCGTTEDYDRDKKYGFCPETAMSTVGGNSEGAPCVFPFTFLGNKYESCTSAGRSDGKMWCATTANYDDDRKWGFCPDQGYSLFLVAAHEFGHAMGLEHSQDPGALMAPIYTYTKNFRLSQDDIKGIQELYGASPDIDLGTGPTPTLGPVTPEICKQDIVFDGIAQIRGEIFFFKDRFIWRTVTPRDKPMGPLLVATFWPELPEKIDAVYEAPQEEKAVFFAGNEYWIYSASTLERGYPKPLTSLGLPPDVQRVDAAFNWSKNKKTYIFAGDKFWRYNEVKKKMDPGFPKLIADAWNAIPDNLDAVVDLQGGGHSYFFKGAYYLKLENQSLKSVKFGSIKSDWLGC
assayComment: Inhibition of human recombinant MMP-2 using MOCAcPLGLA2pr(Dnp)AR-NH2 as substrate by fluorescence spectrophotometric analysis
reportedEndpoint: log10 Ki (log10 of the value in nM)

[
  {
    "compound": "COC(=O)Oc1ccc(Oc2ccc(S(=O)(=O)CC3CS3)cc2)cc1 (stereo unspecified)",
    "measuredOn": "72 kDa type IV collagenase (Homo sapiens)",
    "log10 Ki": 2.20
  },
  {
    "compound": "CCOC(=O)Nc1ccc(Oc2ccc(S(=O)(=O)CC3CS3)cc2)cc1 (stereo unspecified)",
    "measuredOn": "72 kDa type IV collagenase (Homo sapiens)",
    "log10 Ki": 2.46
  },
  {
    "compound": "CCNC(=O)Oc1ccc(Oc2ccc(S(=O)(=O)CC3CS3)cc2)cc1 (stereo unspecified)",
    "measuredOn": "72 kDa type IV collagenase (Homo sapiens)",
    "log10 Ki": 2.74
  },
  {
    "compound": "CCCOC(=O)Nc1ccc(Oc2ccc(S(=O)(=O)CC3CS3)cc2)cc1 (stereo unspecified)",
    "measuredOn": "72 kDa type IV collagenase (Homo sapiens)",
    "log10 Ki": 2.69
  },
  {
    "compound": "CNC(=O)Nc1ccc(Oc2ccc(S(=O)(=O)CC3CS3)cc2)cc1 (stereo unspecified)",
    "measuredOn": "72 kDa type IV collagenase (Homo sapiens)",
    "log10 Ki": 2.38
  },
  {
    "compound": "CC(C)OC(=O)Oc1ccc(Oc2ccc(S(=O)(=O)CC3CS3)cc2)cc1 (stereo unspecified)",
    "measuredOn": "72 kDa type IV collagenase (Homo sapiens)",
    "log10 Ki": 2.68
  },
  {
    "compound": "CC(C)OC(=O)Nc1ccc(Oc2ccc(S(=O)(=O)CC3CS3)cc2)cc1 (stereo unspecified)",
    "measuredOn": "72 kDa type IV collagenase (Homo sapiens)",
    "log10 Ki": 2.83
  },
  {
    "compound": "CCCNC(=O)Oc1ccc(Oc2ccc(S(=O)(=O)CC3CS3)cc2)cc1 (stereo unspecified)",
    "measuredOn": "72 kDa type IV collagenase (Homo sapiens)",
    "log10 Ki": 2.88
  },
  {
    "compound": "CCCNC(=O)Nc1ccc(Oc2ccc(S(=O)(=O)CC3CS3)cc2)cc1 (stereo unspecified)",
    "measuredOn": "72 kDa type IV collagenase (Homo sapiens)",
    "log10 Ki": 2.75
  },
  {
    "compound": "CCOC(=O)Oc1ccc(Oc2ccc(S(=O)(=O)CC3CS3)cc2)cc1 (stereo unspecified)",
    "measuredOn": "72 kDa type IV collagenase (Homo sapiens)",
    "log10 Ki": 2.36
  },
  {
    "compound": "CC(C)NC(=O)Oc1ccc(Oc2ccc(S(=O)(=O)CC3CS3)cc2)cc1 (stereo unspecified)",
    "measuredOn": "72 kDa type IV collagenase (Homo sapiens)",
    "log10 Ki": 2.84
  },
  {
    "compound": "CCCOC(=O)Oc1ccc(Oc2ccc(S(=O)(=O)CC3CS3)cc2)cc1 (stereo unspecified)",
    "measuredOn": "72 kDa type IV collagenase (Homo sapiens)",
    "log10 Ki": 2.49
  },
  {
    "compound": "CCNC(=O)Nc1ccc(Oc2ccc(S(=O)(=O)CC3CS3)cc2)cc1 (stereo unspecified)",
    "measuredOn": "72 kDa type IV collagenase (Homo sapiens)",
    "log10 Ki": 2.64
  },
  {
    "compound": "CC(C)NC(=O)Nc1ccc(Oc2ccc(S(=O)(=O)CC3CS3)cc2)cc1 (stereo unspecified)",
    "measuredOn": "72 kDa type IV collagenase (Homo sapiens)",
    "log10 Ki": 2.62
  },
  {
    "compound": "COC(=O)Nc1ccc(Oc2ccc(S(=O)(=O)CC3CS3)cc2)cc1 (stereo unspecified)",
    "measuredOn": "72 kDa type IV collagenase (Homo sapiens)",
    "log10 Ki": 1.70
  },
  {
    "compound": "CNC(=O)Oc1ccc(Oc2ccc(S(=O)(=O)CC3CS3)cc2)cc1 (stereo unspecified)",
    "measuredOn": "72 kDa type IV collagenase (Homo sapiens)",
    "log10 Ki": 2.59
  }
]
